- TARGET UNDER TEST: Metabotropic glutamate receptor 8 (Rattus norvegicus) (UniProt P70579)
- Sequence (P70579 whole entry, looked up): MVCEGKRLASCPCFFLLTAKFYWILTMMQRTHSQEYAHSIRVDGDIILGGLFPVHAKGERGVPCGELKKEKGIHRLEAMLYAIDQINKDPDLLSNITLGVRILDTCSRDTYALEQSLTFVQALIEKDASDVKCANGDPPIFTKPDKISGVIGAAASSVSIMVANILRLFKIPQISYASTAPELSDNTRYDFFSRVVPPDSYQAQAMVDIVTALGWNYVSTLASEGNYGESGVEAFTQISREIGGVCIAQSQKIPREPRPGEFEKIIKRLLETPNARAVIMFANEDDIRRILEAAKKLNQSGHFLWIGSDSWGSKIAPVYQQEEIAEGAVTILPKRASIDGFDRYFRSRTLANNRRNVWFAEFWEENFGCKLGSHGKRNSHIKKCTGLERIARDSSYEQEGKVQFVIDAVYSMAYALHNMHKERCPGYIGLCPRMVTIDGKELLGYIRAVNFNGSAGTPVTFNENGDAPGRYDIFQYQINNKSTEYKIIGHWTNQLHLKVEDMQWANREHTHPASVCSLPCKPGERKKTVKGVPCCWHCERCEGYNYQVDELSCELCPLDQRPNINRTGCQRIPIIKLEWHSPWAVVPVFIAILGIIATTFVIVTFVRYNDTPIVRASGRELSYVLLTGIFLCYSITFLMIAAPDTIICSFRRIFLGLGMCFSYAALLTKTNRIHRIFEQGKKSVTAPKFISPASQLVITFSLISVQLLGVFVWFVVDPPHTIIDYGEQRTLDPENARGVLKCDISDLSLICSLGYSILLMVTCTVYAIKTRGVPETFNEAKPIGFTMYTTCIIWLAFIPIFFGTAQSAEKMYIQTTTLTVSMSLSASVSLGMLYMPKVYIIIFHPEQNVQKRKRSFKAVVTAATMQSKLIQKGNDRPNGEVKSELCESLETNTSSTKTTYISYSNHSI
- TEST SUMMARY: mGluR8 Gi/Go-coupled signaling modulation – cell-based, rat, thallium flux, HTS, primary screen (AID 488969)
- ASSAY CONDITIONS: HEK293 rat mGluR8, GIRK (G protein-gated inwardly rectifying potassium channel) thallium flux, FluoZin2; at 10 µM; stronger effect = higher value; submaximal glutamate (EC20) added with thallium
The full ranking holds about 110,000 compounds; the median of “z-score” is about -0.1, and the highest 2% start at about 2. The list comes from a sample in which the highest values are over-represented; it also holds close analogues and randomly drawn compounds.
Could you please classify the records by z-score using these ranges: low range (below -0.08), mid range (-0.08 to below 0.08), high range (0.08 or more)

In plain terms, what class is `CC(C)(C)c1nnc(N/N=C/c2ccccc2)n(N)c1=O` ?
high range

Please answer likewise for `NC(=O)N/N=C\c1cc(Br)ccc1O`
low range

Please answer likewise for `CCc1nc2cc(Cl)c(Cl)cc2[nH]1`
high range

Please answer likewise for `Cc1ccccc1C(=O)NNC(=S)NC(=O)c1ccccc1`
high range

Please answer likewise for `CN=C1c2cc3c(Br)c(OC)ccc3n2CCN1C`
high range

Please answer likewise for `Cc1ccc(-c2nnn(CC(=O)NCc3ccccc3)n2)c(-n2cnnn2)c1`
low range

Please answer likewise for `CCOc1ccc(OCC)c(-c2c(=O)n(OCc3ccccc3Br)c3ccccc3[n+]2[O-])c1`
high range

Please answer likewise for `CSc1cc(C)n(-c2ccccc2)c(=S)c1C(C)=O`
mid range

Please answer likewise for `CN(C)c1nc(N)nc(CSc2n[nH]c(-c3ccccc3)n2)n1`
mid range

Please answer likewise for `CC(C)(C)c1nnc(N/N=C/c2ccccc2O)n(N)c1=O`
low range

Please answer likewise for CCCC(=O)C1=C(O)C(C(=O)OC)C(C)(C)CC1=NC(C)(C)C (stereo unspecified)
low range

Please answer likewise for `O=C(CSCc1ccc(F)cc1)Nc1ccccc1`
high range

Please answer likewise for `Cc1ccc(C(=O)OCC(=O)NCc2ccco2)cc1`
low range

Please answer likewise for `Cn1c(SCC(=O)c2ccc(F)cc2)nnc1-c1ccccc1N`
mid range

Please answer likewise for `O=C(NC(=S)NNC(=O)c1ccccc1[N+](=O)[O-])c1ccccc1`
mid range
